For each record, write down the corresponding melting point.

The compound `CN(C)c1c(F)c(F)c(F)c2c1c(=O)cc(C(=O)O)n2C1CC1` showed melting point equal to 160 to 163 °C

For `S=C(Nc1ccc(Cl)c(Cl)c1)NC1CCCCC1` the compound record lists melting point as 159 to 162 °C

response.value for `c1ccc(-c2cc(-c3ccccc3)c(N3CCN(c4ncccn4)CC3)nn2)cc1` (field: melting point) = 71 to 74 °C

Just so you know, measured melting point for `COc1ccccc(NS(=O)(=O)c2ccc(C)cc2)c1=O` came out at 163 to 164 °C

Data point: `O=c1[nH]c2scc(-c3ccccc3)c2[nH]c1=O` ; melting point = > 300 °C

Note to self: melting point recorded for `C[C@@H]1CN(C(=O)[C@@](C)(O)C(F)(F)F)[C@@H](C)CN1S(=O)(=O)c1ccc(C(=O)N(C)C)cc1` was 86 to 87 °C

# melting point of `Cc1ccccc1-c1ccc2c(c1)CN(CCNC(=O)C1CCCC1)C(N)=N2` = 43 to 46 °C

// sample `CCN1CCc2cc([N+](=O)[O-])ccc21` , its melting point was 97 to 98 °C

Entry under test: `CC(C)(C)OC(=O)Oc1ccc([N+](=O)[O-])cc1` . Its melting point was 73 to 74.5 °C

The recorded melting point for `O=C(O)Cc1ccc(O)c(OCc2ccccc2)c1` is 130 to 133 °C

====

Exercise: state measured melting point for each of the compounds provided.

Record `Cn1c(=O)[nH]c2cc(CC(=O)O)ccc21` , field melting point: 220 °C

melting point reported for this compound CSc1cc(Cl)ccc1C(=O)C(C#N)C(=O)c1cc(C(F)(F)F)cc(C(F)(F)F)c1 (stereo not given) : 146 to 149 °C

Noted for Fc1cccc(C2OC3(CCNCC3)N3CCCCC23)c1 (stereo not given) : its melting point reads 133 to 135 °C

melting point reading for CC(C)(C)NCC(O)COc1ccc(F)cc1-c1ccc(=S)[nH]n1 (stereo not given) : 170 to 173 °C

Entry under test: `N#Cc1ccc(C=O)c(SCc2ccccc2)c1` . Its melting point was 106 to 109 °C

Lab note: measured melting point of `Cc1oc(-c2ccc3ccccc3c2)nc1COc1ccc(CO)cc1` was 181 to 182 °C

The recorded melting point for CC(C)CNC(=O)c1ccc(C(=O)N2CCC[C@@H]3CCCC[C@H]32)cc1N (relative stereo) is 153 to 155 °C

Note to self: melting point recorded for `O=C1C(c2ccc(O)cc2)=C(c2ccccc2)c2c(O)cc(O)cc21` was 223 to 225 °C

Recorded melting point (compound CC(Cn1cc(Cl)c(-c2ccccc2Cl)n1)C(=O)N(C)C (stereo not given) ): 91 to 92 °C

The value of melting point measured for the compound `COc1ccc(Cn2c(=S)[nH]c(=S)c3[nH]cnc32)cc1OC1CCCC1` turned out to be 215 to 218 °C

====

For each record, write down the corresponding melting point.

Consider `CCOc1cc(OCC(=O)N2CCN(C(=O)OC(C)(C)C)CC2)cc2c1C(=O)N(COC(=O)c1c(Cl)cccc1Cl)S2(=O)=O` . Its measured melting point is 193 to 195 °C

Looking up `COc1ccc(-c2cnn3c(N)c(-c4cccc(Cl)c4)c(CF)nc23)cc1OC` , I see its melting point listed as 228 to 230 °C

Memo: `O=C1NN=C(C=Cc2ccc([N+](=O)[O-])cc2)CS1` , reported melting point: 231 to 240 °C

Consider CC12CCC(C(=O)O)=CC1=CCC1C2CCC2(C)C(C(=O)Cc3ccccc3)CCC12 (centres undefined) . Its measured melting point is 258 °C
